assay-notes: Acute toxicity in ip dosed Swiss-Webster mouse measured after 72 hrs
Type: organism-based
test-parameters: in vivo
attribute-measured: LD50 at 72 h (µmol/kg)
State just the number; it will be interpreted in µmol/kg.

These recorded examples may help you get a feel for the data.
[[record]]
compound = "O=C(O)[C@H]1CCCN1[N+](=O)[O-]"
unit = "µmol/kg"
recorded_result = 1390

[[record]]
compound = "O=C(O)C1CCCCN1[N+](=O)[O-] (racemic)"
unit = "µmol/kg"
recorded_result = 2100


Consider the additional compound presented here.
Task: Find the recorded LD50 at 72 h belonging to O=C(O)[C@@H]1CCCN1[N+](=O)[O-] and report it.
Result: 1170

The measured values listed here are drawn from ChEMBL document CHEMBL3244321.
